Exercise: state measured A*02:01 In Vitro Score for each of the sequences provided.
Target: HLA-A*02:01 (Homo sapiens, UniProt P04439, D140Y/D185E/D98H/E176V/E277Q/G131W/G231S/I119V/I121R/I166T/I218V/L300P/L318F/N151K/N90K/P208A/P217A/Q86G/Q94H/R138H/R169H/T345S)
Assay: REVEAL Epitope Discovery System in vitro MHC-peptide binding assay
Settings: binding normalized to positive control peptide set at 100%, greater than 50 considered good or high affinity binding
No end group written: not given here.
Answers are plain numbers.

VAFIIFWVS = 70.60

Go through the items and report each one's A*02:01 In Vitro Score.
1. FIIFWVQRG
2. AFIIFWVKR
3. FWVKRGHKK

[A]
[16.80, 0.50, 2.60]

Batch: A*02:01 In Vitro Score for all items listed.
1. VAFIIFWVR
2. WVHRGRKKL
3. FWVQRGAKK
4. WVKRGSKKL

[A]
[1.20, 1.60, 2.20, 3.00]

* * *

Give measured A*11:01 In Vitro Score for each item. Keep answers brief.
Biological target: HLA-A*11:01 (Homo sapiens, UniProt P04439, A114D/D185E/E176A/F33Y/L180Q/S129P/T187R)
Assay: REVEAL Epitope Discovery System in vitro MHC-peptide binding assay
Conditions: binding normalized to positive control peptide set at 100%, >50 considered good or high affinity binding
Procedure: Actual binding affinities for certain HLA class I alleles (A*02:01, A*03:01, A*11:01, and B*08:01) were assessed in vitro for exemplary overlapping 9 amino acid peptide sequences within a portion of the 26 amino acid junction region spanning the CD28 and 4-1BB junction. […] In addition, a series of overlapping 9-mer peptides of each of a number of different variants of this portion also were assessed, each variant containing a mutation or mutations in this region as described in Example 2. […]
One number for each entry.

Example entries and their recorded answers appear below.
CC(C)C[C@H](NC(=O)[C@H](CCCCN)NC(=O)[C@H](CCCCN)NC(=O)[C@H](CCCNC(=N)N)NC(=O)CNC(=O)[C@H](CCCNC(=N)N)NC(=O)[C@H](CCC(N)=O)NC(=O)[C@@H](NC(=O)[C@@H](N)Cc1c[nH]c2ccccc12)C(C)C)C(=O)O = 12.80
CC(C)C[C@H](NC(=O)CNC(=O)[C@H](CCCNC(=N)N)NC(=O)[C@H](CCCCN)NC(=O)[C@@H](NC(=O)[C@H](Cc1c[nH]c2ccccc12)NC(=O)[C@@H](N)Cc1ccccc1)C(C)C)C(=O)N[C@@H](CCCCN)C(=O)N[C@@H](CCCCN)C(=O)O = 25.30
CC(C)C[C@H](NC(=O)[C@H](CCCCN)NC(=O)[C@H](CCCCN)NC(=O)[C@H](CO)NC(=O)CNC(=O)[C@H](CCCNC(=N)N)NC(=O)[C@H](CCC(N)=O)NC(=O)[C@@H](NC(=O)[C@@H](N)Cc1c[nH]c2ccccc12)C(C)C)C(=O)O = 5.90
CC[C@H](C)[C@H](N)C(=O)N[C@@H](Cc1ccccc1)C(=O)N[C@@H](Cc1c[nH]c2ccccc12)C(=O)N[C@H](C(=O)N[C@@H](CCCCN)C(=O)N[C@@H](CCCNC(=N)N)C(=O)NCC(=O)N[C@@H](Cc1c[nH]cn1)C(=O)N[C@@H](CCCCN)C(=O)O)C(C)C = 30.90

Your task in this section: give A*11:01 In Vitro Score for each listed record.
1. CC(C)C[C@H](NC(=O)[C@H](CCCCN)NC(=O)[C@H](CCCCN)NC(=O)[C@H](CCCNC(=N)N)NC(=O)CNC(=O)[C@H](CCCNC(=N)N)NC(=O)[C@H](C)NC(=O)[C@@H](NC(=O)[C@@H](N)Cc1c[nH]c2ccccc12)C(C)C)C(=O)O
2. CC(C)[C@H](NC(=O)[C@@H](N)Cc1c[nH]c2ccccc12)C(=O)N[C@@H](CCC(N)=O)C(=O)N[C@@H](CCCNC(=N)N)C(=O)NCC(=O)N[C@@H](CC(N)=O)C(=O)N[C@@H](CCCCN)C(=O)N[C@@H](CCCCN)C(=O)N[C@@H](CO)C(=O)O
3. CC[C@H](C)[C@H](NC(=O)[C@H](Cc1ccccc1)NC(=O)[C@H](C)N)C(=O)N[C@H](C(=O)N[C@@H](Cc1ccccc1)C(=O)N[C@@H](Cc1c[nH]c2ccccc12)C(=O)N[C@H](C(=O)N[C@@H](CCCNC(=N)N)C(=O)N[C@@H](CCCNC(=N)N)C(=O)O)C(C)C)[C@@H](C)CC
4. CC[C@H](C)[C@H](N)C(=O)N[C@H](C(=O)N[C@@H](Cc1ccccc1)C(=O)N[C@@H](Cc1c[nH]c2ccccc12)C(=O)N[C@H](C(=O)N[C@@H](C)C(=O)N[C@@H](CCCNC(=N)N)C(=O)NCC(=O)N[C@@H](CCCNC(=N)N)C(=O)O)C(C)C)[C@@H](C)CC

[A]
13.80
5.00
1.50
70.60
